Tested on: LCLC-103H
ASSAY REMARKS: relative viability (nuclei count vs DMSO), 5 days (fraction); higher = more cells survive
STUDY CONDITIONS: first compound 0.02 µM
VALUE KIND: relative viability
Answer using only a numeral; do not append any unit.

Completed entries (count: 3):
MOLECULE	READOUT NUMBER
CC(=O)O[C@@]12CO[C@@H]1C[C@H](O)[C@@]1(C)C(=O)[C@H](O)C3=C(C)[C@@H](OC(=O)[C@H](O)[C@@H](NC(=O)OC(C)(C)C)c4ccccc4)C[C@@](O)([C@@H](OC(=O)c4ccccc4)[C@H]21)C3(C)C [Docetaxel] + N=C(N)NC(=N)NCCc1ccccc1 [Phenformin] (partner 250 µM)	0.248
CC(=O)O[C@@]12CO[C@@H]1C[C@H](O)[C@@]1(C)C(=O)[C@H](O)C3=C(C)[C@@H](OC(=O)[C@H](O)[C@@H](NC(=O)OC(C)(C)C)c4ccccc4)C[C@@](O)([C@@H](OC(=O)c4ccccc4)[C@H]21)C3(C)C [Docetaxel] + CS(=O)(=O)N1CCN(Cc2cc3nc(-c4cccc5[nH]ncc45)nc(N4CCOCC4)c3s2)CC1 [Pictilisib] (partner 1 µM)	0.251
CC(=O)O[C@@]12CO[C@@H]1C[C@H](O)[C@@]1(C)C(=O)[C@H](O)C3=C(C)[C@@H](OC(=O)[C@H](O)[C@@H](NC(=O)OC(C)(C)C)c4ccccc4)C[C@@](O)([C@@H](OC(=O)c4ccccc4)[C@H]21)C3(C)C [Docetaxel] + Cc1cc(Nc2cc(N3CCN(C)CC3)nc(Sc3ccc(NC(=O)C4CC4)cc3)n2)n[nH]1 [Tozasertib] (partner 0.1 µM)	0.296

Consider the record given below.
## Input Request the reported relative viability associated with CC(=O)O[C@@]12CO[C@@H]1C[C@H](O)[C@@]1(C)C(=O)[C@H](O)C3=C(C)[C@@H](OC(=O)[C@H](O)[C@@H](NC(=O)OC(C)(C)C)c4ccccc4)C[C@@](O)([C@@H](OC(=O)c4ccccc4)[C@H]21)C3(C)C [Docetaxel] + CC(=O)Nc1cccc(-n2c(=O)n(C3CC3)c(=O)c3c(Nc4ccc(I)cc4F)n(C)c(=O)c(C)c32)c1 [Trametinib] (partner 0.02 µM)
## Output 0.592

----------
Tested on: NCI-H1793
ASSAY REMARKS: relative viability (nuclei count vs DMSO), 5 days (fraction); higher = more cells survive
STUDY CONDITIONS: first compound 0.1265 µM
VALUE KIND: relative viability
Answer using only a numeral; do not append any unit.

COMPOUND	READOUT NUMBER
Cc1sc2c(c1C)C(c1ccc(Cl)cc1)=N[C@@H](CC(=O)OC(C)(C)C)c1nnc(C)n1-2 [JQ1] + Cc1cc(Nc2cc(N3CCN(C)CC3)nc(Sc3ccc(NC(=O)C4CC4)cc3)n2)n[nH]1 [Tozasertib] (partner 0.1 µM)	0.316

## Input Request the reported relative viability associated with Cc1sc2c(c1C)C(c1ccc(Cl)cc1)=N[C@@H](CC(=O)OC(C)(C)C)c1nnc(C)n1-2 [JQ1] + CS(=O)(=O)N1CCN(Cc2cc3nc(-c4cccc5[nH]ncc45)nc(N4CCOCC4)c3s2)CC1 [Pictilisib] (partner 1 µM)
## Output 0.391

## Input Request the reported relative viability associated with Cc1sc2c(c1C)C(c1ccc(Cl)cc1)=N[C@@H](CC(=O)OC(C)(C)C)c1nnc(C)n1-2 [JQ1] + COc1cccc2cc(-c3nc([C@H]4CC[C@H](C(=O)O)CC4)n4ncnc(N)c34)[nH]c12 [OSI-027] (partner 0.5 µM)
## Output 0.343

## Input Request the reported relative viability associated with Cc1sc2c(c1C)C(c1ccc(Cl)cc1)=N[C@@H](CC(=O)OC(C)(C)C)c1nnc(C)n1-2 [JQ1] + O=C(CCCCCCC(=O)Nc1ccccc1)NO [Vorinostat] (partner 1 µM)
## Output 0.853

## Input Request the reported relative viability associated with Cc1sc2c(c1C)C(c1ccc(Cl)cc1)=N[C@@H](CC(=O)OC(C)(C)C)c1nnc(C)n1-2 [JQ1] + Cc1nc(NC(=O)N2CCC[C@H]2C(N)=O)sc1-c1ccnc(C(C)(C)C(F)(F)F)c1 [Alpelisib] (partner 2 µM)
## Output 0.781

## Input Request the reported relative viability associated with Cc1sc2c(c1C)C(c1ccc(Cl)cc1)=N[C@@H](CC(=O)OC(C)(C)C)c1nnc(C)n1-2 [JQ1] + Nc1nc2[nH]cc(CCc3ccc(C(=O)N[C@@H](CCC(=O)O)C(=O)O)cc3)c2c(=O)[nH]1 [Pemetrexed] (partner 0.2 µM)
## Output 0.81
